// values below are IC50; system is CCK-2 receptor (Cavia porcellus, UniProt H0VZC5)
Sequence (H0VZC5 1-426): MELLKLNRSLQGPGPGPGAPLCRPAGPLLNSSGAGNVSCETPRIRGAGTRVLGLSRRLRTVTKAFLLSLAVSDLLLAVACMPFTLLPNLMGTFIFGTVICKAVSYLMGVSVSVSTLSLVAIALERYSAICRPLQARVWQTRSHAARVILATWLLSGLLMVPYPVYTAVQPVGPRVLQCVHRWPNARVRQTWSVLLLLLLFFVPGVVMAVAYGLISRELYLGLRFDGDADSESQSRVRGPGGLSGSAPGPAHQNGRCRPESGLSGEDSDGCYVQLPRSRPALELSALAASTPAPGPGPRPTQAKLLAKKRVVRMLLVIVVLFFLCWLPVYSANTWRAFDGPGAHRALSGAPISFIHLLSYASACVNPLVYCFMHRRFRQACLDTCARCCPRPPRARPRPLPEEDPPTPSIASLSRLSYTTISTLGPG
Give the value in µM but do not write µM after it.

Identify the measured IC50 of O=C(Nc1ccccc1C(=O)NC(Cc1ccccc1)C(=O)O)c1cc2cc(F)ccc2[nH]1 (stereo not shown) [Compound 6] for CCK-2 receptor (Cavia porcellus, UniProt H0VZC5). 10.6

Identify the measured IC50 of Cc1ccccc1CCC(NC(=O)c1ccccc1NC(=O)c1cc2cc(F)ccc2[nH]1)C(=O)O (stereo not shown) [Compound 26] for CCK-2 receptor (Cavia porcellus, UniProt H0VZC5). 5.15

###

# Assay Target: CCK-1 (guinea pig gall bladder) (Cavia porcellus)
# Construct: A guinea pig gall bladder stimulated in vitro by CCK-8
# Sequence (Q63931 whole entry): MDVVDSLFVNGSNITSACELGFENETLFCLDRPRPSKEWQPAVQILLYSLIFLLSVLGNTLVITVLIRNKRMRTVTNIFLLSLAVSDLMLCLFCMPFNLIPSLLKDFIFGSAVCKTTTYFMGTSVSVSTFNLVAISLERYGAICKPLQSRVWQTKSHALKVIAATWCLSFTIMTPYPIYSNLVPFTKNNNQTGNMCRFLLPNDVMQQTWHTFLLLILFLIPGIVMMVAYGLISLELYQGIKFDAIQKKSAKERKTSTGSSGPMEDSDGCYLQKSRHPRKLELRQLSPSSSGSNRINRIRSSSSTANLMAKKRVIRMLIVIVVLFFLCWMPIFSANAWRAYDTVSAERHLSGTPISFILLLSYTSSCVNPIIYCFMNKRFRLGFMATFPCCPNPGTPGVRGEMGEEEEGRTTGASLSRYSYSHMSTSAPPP
# Experimental Details: Inhibition of the in vitro CCK-8 induced contraction of guinea pig gall bladder
# Run Conditions: CCK-8 5 ng/ml; average of at least two experiments, 6-8 concentrations
Value Type: IC50 (nM)
Give the value in nM but do not write nM after it.

Compound | Value Type | Number
O=C(Nc1ccccc1C(=O)NC(CCc1ccccc1)C(=O)O)c1cc2cc(F)ccc2[nH]1 (stereo not drawn) | IC50 | 15
Cc1ccccc1CCC(NC(=O)c1ccccc1NC(=O)c1cc2cc(F)ccc2[nH]1)C(=O)O (stereo not drawn) | IC50 | 43

Any idea what its IC50 is? The compound is O=C(Nc1ccccc1C(=O)NC(CCc1ccccc1)C(=O)O)c1cc2ccccc2[nH]1 (stereo not drawn) 35

Any idea what its IC50 is? The compound is `O=C(Nc1ccccc1C(=O)N[C@H](CCc1ccccc1)C(=O)O)c1cc2ccccc2[nH]1` 20

Any idea what its IC50 is? The compound is Cc1ccccc1CCC(NC(=O)c1ccccc1NC(=O)c1cc2ccccc2[nH]1)C(=O)O (stereo not drawn) 8

Any idea what its IC50 is? The compound is COc1ccccc1CCC(NC(=O)c1ccccc1NC(=O)c1cc2ccccc2[nH]1)C(=O)O (stereo not drawn) 30

The measurements presented in this section are drawn from patent US7294648B2.
